biological target: KRas(G12V) (Homo sapiens (Human), UniProt P01116, G12V); test: KRas(G12V) GDP HTRF (BODIPY-GDP exchange TR-FRET); assay type: biochemical
Sequence (P01116-2 other isoform, or with tags, fused parts or gaps G12V): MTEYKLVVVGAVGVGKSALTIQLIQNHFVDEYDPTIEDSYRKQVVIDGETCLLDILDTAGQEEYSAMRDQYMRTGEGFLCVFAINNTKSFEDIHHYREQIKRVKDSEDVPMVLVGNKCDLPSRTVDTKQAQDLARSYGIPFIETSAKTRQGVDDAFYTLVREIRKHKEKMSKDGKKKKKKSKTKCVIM
pIC50: −log10 of the molar value.
Could you label it true if measured pIC50 is 8 or higher, and false otherwise?

[[record]]
compound = "CC(=O)N1CCN2[C@H](COc3nc4c5c(c(Cl)c(-c6nc(N)cc(C)c6C(F)(F)F)c(F)c5n3)OCCN4[C@H](C)c3cccnc3N)CC[C@H]2C1 (atropisomer, axis not shown; (aS)) [Example 123a]"
answer_label = "true"

[[record]]
compound = "Cc1cc(N)nc(-c2c(Cl)c3c4c(nc(OC[C@@H]5C[C@@]6(CN5C)CC6(F)F)nc4c2F)N([C@H](C)c2nccnc2N)CCO3)c1C(F)(F)F (atropisomer, axis not shown) [Example 171a]"
answer_label = "true"

[[record]]
compound = "Cc1cc(N)nc(-c2c(Cl)c3c4c(nc(OC[C@@H]5C[C@@H](F)CN5C)nc4c2F)N([C@@H]2CCCc4ccnc(N)c42)CCO3)c1C(F)(F)F (atropisomer, axis not shown) [Example 132]"
answer_label = "true"

[[record]]
compound = "Cc1cc(N)nc(-c2c(Cl)c3c4c(nc(OC[C@@]56CCCN5C[C@H](F)C6)nc4c2F)N(C)CCO3)c1C(F)(F)F (single isomer, unassigned) [Example 41a]"
answer_label = "true"

[[record]]
compound = "Cc1cc(N)nc(-c2c(Cl)c3c4c(nc(OCC5CCN(S(C)(=O)=O)CC5)nc4c2F)N([C@H](C)c2cccnc2N)CCO3)c1C(F)(F)F (atropisomer, axis not shown) [Example 148]"
answer_label = "true"

[[record]]
compound = "Cc1cc(N)nc(-c2cc3ncnc4c3c(c2Cl)OCCN4C(C)c2cnc[nH]2)c1C(F)(F)F (stereo not shown) [Example 15]"
answer_label = "false"

[[record]]
compound = "Cc1cc(N)nc(-c2cc3ncnc4c3c(c2Cl)OCCN4Cc2cc(F)cnc2N)c1C(F)(F)F [Example 31]"
answer_label = "false"

[[record]]
compound = "Cc1cc(N)nc(-c2c(Cl)c3c4c(nc(OCC5CCOCC5)nc4c2F)N([C@H](C)c2cccnc2N)CCO3)c1C(F)(F)F (atropisomer, axis not shown) [Example 152]"
answer_label = "true"

[[record]]
compound = "Cc1cc(N)nc(-c2c(Cl)c3c4c(nc(OC[C@H]5CC[C@@H]6CO[C@H](C)CN56)nc4c2F)N([C@H](C)c2cccnc2N)CCO3)c1C(F)(F)F (atropisomer, axis not shown; (aR)) [Example 93d]"
answer_label = "true"

[[record]]
compound = "Cc1cc(N)nc(-c2cc3ncnc4c3c(c2Cl)OCCN4C(c2cccnc2N)C(F)(F)F)c1C(F)(F)F (stereo not shown) [Example 20]"
answer_label = "false"

[[record]]
compound = "Cc1cc(N)nc(-c2c(Cl)c3c4c(nc(OC[C@H]5C[C@H](O)C5)nc4c2F)N([C@H](C)c2cccnc2N)CCO3)c1C(F)(F)F (atropisomer, axis not shown) [Example 145]"
answer_label = "true"

[[record]]
compound = "Cc1cc(N)nc(-c2cc3ncnc4c3c(c2Cl)OCCN4[C@H](C)c2cccnc2N)c1C(F)(F)F [Example 5]"
answer_label = "true"

[[record]]
compound = "Cc1cc(N)nc(-c2cc3ncnc4c3c(c2Cl)OC[C@H](CC#N)N4Cc2cccnc2N)c1C(F)(F)F [Example 19]"
answer_label = "false"

[[record]]
compound = "Cc1cc(N)nc(-c2cc3ncnc4c3c(c2Cl)OCCN4Cc2cncc(O)c2)c1C(F)(F)F [Example 9]"
answer_label = "false"

[[record]]
compound = "Cc1cc(N)nc(-c2c(Cl)c3c4c(nc(OC[C@@]56CCCN5C[C@H](F)C6)nc4c2F)N([C@H](C)c2cncnc2N)CCO3)c1C(F)(F)F (atropisomer, axis not shown; (aS)) [Example 81]"
answer_label = "true"

[[record]]
compound = "Cc1cc(N)nc(-c2c(Cl)c3c4c(nc(OC[C@@]56CCCN5C[C@H](F)C6)nc4c2F)N([C@@H]2CCCc4ccnc(N)c42)CCO3)c1C(F)(F)F (atropisomer, axis not shown; (aS)) [Example 65a]"
answer_label = "true"

[[record]]
compound = "Cc1cc(N)nc(-c2c(Cl)c3c4c(nc(N5CC6(COCCN6)C5)nc4c2F)N([C@H](C)c2cccnc2N)CCO3)c1C(F)(F)F (atropisomer, axis not shown) [Example 90]"
answer_label = "true"

[[record]]
compound = "Cc1cc(N)nc(-c2c(Cl)c3c4c(nc(OC[C@@]56CCCN5C[C@H](F)C6)nc4c2F)N([C@H](C)c2cc(F)cnc2N)CCO3)c1C(F)(F)F (atropisomer, axis not shown; (aS)) [Example 130a]"
answer_label = "true"

[[record]]
compound = "Cc1c(F)c(N)nc(-c2c(Cl)c3c4c(nc(OC[C@@]56CCCN5C[C@H](F)C6)nc4c2F)N([C@H](C)c2cccnc2N)CCO3)c1C(F)(F)F (atropisomer, axis not shown; (aS)) [Example 75a]"
answer_label = "true"


---

// each record: one item and its IC50 for KRas (Homo sapiens (Human), UniProt P01116)
Measured Quantity: IC50 (nM)

[[record]]
molecule = "Cc1cc(N)nc(-c2cc3nc(OC[C@@]45CCCN4C[C@H](F)C5)nc4c3c(c2Cl)OCCN4Cc2cccnc2N)c1C(F)(F)F"
measured_quantity = "IC50"
readout_value = 0.48

[[record]]
molecule = "Cc1cc(N)nc(-c2c(Cl)c3c4c(nc(OCCn5cccn5)nc4c2F)N([C@H](C)c2cccnc2N)CCO3)c1C(F)(F)F (atropisomer, axis not shown)"
measured_quantity = "IC50"
readout_value = 0.83

[[record]]
molecule = "Cc1cc(N)nc(-c2c(Cl)c3c4c(nc(OC[C@@H]5CCCN5CC(F)F)nc4c2F)N([C@H](C)c2cncnc2N)CCO3)c1C(F)(F)F (atropisomer, axis not shown) [Example 103a]"
measured_quantity = "IC50"
readout_value = 1.13

[[record]]
molecule = "Cc1cc(N)nc(-c2c(Cl)c3c4c(nc(OCC56C[C@@H](F)CN5C[C@H](F)C6)nc4c2F)N([C@H](C)c2cccnc2N)CCO3)c1C(F)(F)F (atropisomer, axis not shown) [Example 98a]"
measured_quantity = "IC50"
readout_value = 0.557

[[record]]
molecule = "Cc1cc(N)nc(-c2c(Cl)c3c4c(nc(OC[C@@H]5CC[C@H]6COCCN65)nc4c2F)N([C@H](C)c2cccnc2N)CCO3)c1C(F)(F)F (atropisomer, axis not shown; (aS)) [Example 87a]"
measured_quantity = "IC50"
readout_value = 0.106

[[record]]
molecule = "Cc1cc(N)nc(-c2c(Cl)c3c4c(nc(OCC5(C#N)CC5)nc4c2F)N([C@H](C)c2cccnc2N)CCO3)c1C(F)(F)F (atropisomer, axis not shown)"
measured_quantity = "IC50"
readout_value = 3.3

[[record]]
molecule = "Cc1cc(N)nc(-c2c(Cl)c3c4c(nc(OC[C@H]5COCCN5)nc4c2F)N([C@H](C)c2cccnc2N)CCO3)c1C(F)(F)F (atropisomer, axis not shown)"
measured_quantity = "IC50"
readout_value = 0.359


---

Quick reference for IC50 among some compounds
target: KRas (Homo sapiens (Human))
Sequence (P01116-2 other isoform, or with tags, fused parts or gaps): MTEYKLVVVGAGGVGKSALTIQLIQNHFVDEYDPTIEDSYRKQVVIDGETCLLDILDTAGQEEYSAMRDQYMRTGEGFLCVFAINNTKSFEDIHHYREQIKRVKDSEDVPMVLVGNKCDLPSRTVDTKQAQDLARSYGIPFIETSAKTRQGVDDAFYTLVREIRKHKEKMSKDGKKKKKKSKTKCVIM
Measured Quantity: IC50 (nM)

[[record]]
compound = "Cc1cc(N)nc(-c2c(Cl)c3c4c(nc(OC[C@@]56CCCN5C[C@H](F)C6)nc4c2F)N([C@H](C)c2cncc(N)c2)CCO3)c1C(F)(F)F (atropisomer, axis not shown; (aS))"
readout_value = 0.27

[[record]]
compound = "Cc1cc(N)nc(-c2c(Cl)c3c4c(nc(OC[C@@]56CCCN5C[C@]5(CC5(F)F)C6)nc4c2F)N([C@H](C)c2cccnc2N)CCO3)c1C(F)(F)F (atropisomer, axis not shown) [Example 111a]"
readout_value = 0.85

[[record]]
compound = "Cc1cc(N)c(F)c(-c2c(Cl)c3c4c(nc(OC[C@@]56CCCN5C[C@H](F)C6)nc4c2F)N([C@H](C)c2cccnc2N)CCO3)c1C(F)(F)F (single isomer, unassigned) [Example 73a]"
readout_value = 0.27

[[record]]
compound = "Cc1cc(N)nc(-c2c(Cl)c3c4c(nc(OC(C)[C@@H]5CC(F)(F)CN5C)nc4c2F)N([C@H](C)c2cccnc2N)CCO3)c1C(F)(F)F (stereo partly shown)"
readout_value = 6.61

[[record]]
compound = "Cc1cc(N)nc(-c2c(Cl)c3c4c(nc(OC[C@@]56CCCN5C[C@H](F)C6)nc4c2F)N([C@H](C)c2cc(F)cnc2N)CCO3)c1C(F)(F)F (atropisomer, axis not shown; (aS)) [Example 130a]"
readout_value = 0.07

[[record]]
compound = "Cc1cc(N)nc(-c2cc3ncnc4c3c(c2Cl)OCCN4Cc2cncc(N)c2)c1C(F)(F)F"
readout_value = 2900

[[record]]
compound = "Cc1cc(N)nc(-c2c(Cl)c3c4c(nc(OC[C@@]56CCN5CC(F)(F)C6)nc4c2F)N([C@H](C)c2cccnc2N)CCO3)c1C(F)(F)F (atropisomer, axis not shown) [Example 114a]"
readout_value = 0.39

